# MEASUREMENT TARGET: UniProt P0DTD1
# PROTOCOL DESCRIPTION: biochemical
# RECORDED CONDITIONS: read-out: %inhibition
Measured inhibition at 100 µM, listed per entry for reference.

For orientation, consider the following solved cases.
{"COMPOUND": "CCOc1ccc2ccccc2c1C(=O)N[C@@H]1C(=O)N2[C@@H]1SC(C)(C)[C@@H]2C(=O)O [Nafcillin Sodium]", "REPORTED RESULT": "0%"}
{"COMPOUND": "N=C(N)NS(=O)(=O)c1ccc(N)cc1 [Sulfaguanidine]", "REPORTED RESULT": "8.72%"}
{"COMPOUND": "O=C1Nc2ccc(Cl)cc2[C@@](C#CC2CC2)(C(F)(F)F)O1 [Efavirenz]", "REPORTED RESULT": "0%"}

Note: attention shifts to another entry.
Exercise: Consider the compound shown here: CC(C)(C)c1cc(C(C)(C)C)c(NC(=O)c2c[nH]c3ccccc3c2=O)cc1O [Ivacaftor (VX-770)] What is its recorded inhibition at 100 µM?
Key: 5.97%
